# measurement protocol: AUC (0 to infinity) in healthy human (24 volunteers) at 500 mg, po reference formulation of drug administered as single dose measured after 0.5 to 72 hrs
# Type: ADME, organism-based
# Design: dose 500 mg, time infinity, route oral
# experimental conditions: in vivo
measurement label: AUC(0-inf)

**Query** Record request: AUC(0-inf) value, item CC[C@@H]1OC(=O)[C@H](C)[C@@H](O[C@@H]2C[C@](C)(OC)[C@H](O)[C@@H](C)O2)[C@@H](C)[C@@H](O[C@@H]2O[C@H](C)C[C@H](N(C)C)[C@H]2O)[C@](C)(O)C[C@@H](C)CN(C)[C@H](C)[C@@H](O)[C@]1(C)O
**Result** 8440 ng·h/mL

====

# measurement protocol: Tmax in healthy human (24 volunteers) at 500 mg, po test formulation of drug administered as single dose
# Format: ADME, organism-based
# experimental conditions: in vivo
measurement label: Tmax
Answer format: number, then unit.

**Query** Would you mind telling me what Tmax value was observed for CC[C@@H]1OC(=O)[C@H](C)[C@@H](O[C@@H]2C[C@](C)(OC)[C@H](O)[C@@H](C)O2)[C@@H](C)[C@@H](O[C@@H]2O[C@H](C)C[C@H](N(C)C)[C@H]2O)[C@](C)(O)C[C@@H](C)CN(C)[C@H](C)[C@@H](O)[C@]1(C)O ?
**Result** 1.96 h

====

# measurement protocol: Tmax in healthy human (24 volunteers) at 500 mg, po reference formulation of drug administered as single dose
# Format: ADME, organism-based
# experimental conditions: in vivo
measurement label: Tmax (h)
Numbers only, in h.

**Query** Requested field: Tmax. Item: CC[C@@H]1OC(=O)[C@H](C)[C@@H](O[C@@H]2C[C@](C)(OC)[C@H](O)[C@@H](C)O2)[C@@H](C)[C@@H](O[C@@H]2O[C@H](C)C[C@H](N(C)C)[C@H]2O)[C@](C)(O)C[C@@H](C)CN(C)[C@H](C)[C@@H](O)[C@]1(C)O
**Result** 2.08

====

# measurement protocol: Cmax in healthy human (24 volunteers) at 500 mg, po test formulation of drug administered as single dose measured after 0.5 to 72 hrs
# Format: ADME, organism-based
# Parameters: dose 500 mg, route oral
# experimental conditions: in vivo
measurement label: Cmax (ng/mL)
Answers are plain numbers, in ng/mL.

**Query** Look up Cmax: CC[C@@H]1OC(=O)[C@H](C)[C@@H](O[C@@H]2C[C@](C)(OC)[C@H](O)[C@@H](C)O2)[C@@H](C)[C@@H](O[C@@H]2O[C@H](C)C[C@H](N(C)C)[C@H]2O)[C@](C)(O)C[C@@H](C)CN(C)[C@H](C)[C@@H](O)[C@]1(C)O
**Result** 486

====

# measurement protocol: AUC (0 to infinity) in healthy human (24 volunteers) at 500 mg, po test formulation of drug administered as single dose measured after 0.5 to 72 hrs
# Assay type: ADME, organism-based
# Design: dose 500 mg, route oral, time infinity
# experimental conditions: in vivo
measurement label: AUC(0-inf) (ng·h/mL)
Answers are plain numbers, in ng·h/mL.

**Query** Record request: AUC(0-inf) value, item CC[C@@H]1OC(=O)[C@H](C)[C@@H](O[C@@H]2C[C@](C)(OC)[C@H](O)[C@@H](C)O2)[C@@H](C)[C@@H](O[C@@H]2O[C@H](C)C[C@H](N(C)C)[C@H]2O)[C@](C)(O)C[C@@H](C)CN(C)[C@H](C)[C@@H](O)[C@]1(C)O
**Result** 7990

This collection of values is drawn from ChEMBL document CHEMBL3797119.
